# MEASURED TARGET: CMV-specific T cells (Homo sapiens, UniProt Q9NZQ7)
# Sequence (Q9NZQ7 19-290): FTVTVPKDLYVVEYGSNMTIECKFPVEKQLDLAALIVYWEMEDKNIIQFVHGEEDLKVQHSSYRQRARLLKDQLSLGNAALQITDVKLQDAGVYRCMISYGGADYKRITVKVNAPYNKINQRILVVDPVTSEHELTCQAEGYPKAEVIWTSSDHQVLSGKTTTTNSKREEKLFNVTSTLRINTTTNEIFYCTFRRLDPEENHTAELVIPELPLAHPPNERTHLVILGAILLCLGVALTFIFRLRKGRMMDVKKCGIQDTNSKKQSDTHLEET
# ASSAY PROCEDURE: CMV-specific T cell function assay (IFNγ secretion, ELISA)
# Type: cell-based
# STATED CONDITIONS: numeric value; read-out: CMV Recall EC50 values
pEC50: −log10 of the molar value. Positions of bridges follow the written chain, without caps; N, C: chain ends. Non-standard residues stand in square brackets, D forms with d. Residues, ends and D or L forms follow the SMILES beside them. ξ: configuration not given here. Bta = N[C@@H](Cc1csc2ccccc12)C(=O)O; NMeNle = CCCC[C@H](NC)C(=O)O; NMeA = CN[C@@H](C)C(=O)O; ξC = NC(CS)C(=O)O
QUANTITY: pEC50

| COMPOUND | MEASURED TARGET | VAL |
| --- | --- | --- |
| CCCC[C@H]1C(=O)N(C)[C@@H](CCCC)C(=O)N[C@@H](CCCNC(=N)N)C(=O)NC(C(=O)NCC(N)=O)CSCC(=O)N[C@@H](Cc2ccc(O)cc2)C(=O)N(C)[C@@H](C)C(=O)N[C@@H](CC(N)=O)C(=O)N2CCC[C@H]2C(=O)N[C@@H](Cc2cnc[nH]2)C(=O)N[C@@H](CO)C(=O)N2CCC[C@H]2C(=O)N[C@@H](Cc2c[nH]c3ccccc23)C(=O)N[C@@H](CO)C(=O)N[C@@H](Cc2csc3ccccc23)C(=O)N1C (stereo partly shown) [Example 9068] ({CH2CO}-Y[NMeA]NPHSPWS[Bta][NMeNle][NMeNle]R[ξC]G-NH2; thioether N-14) | CMV-specific T cells (Homo sapiens, UniProt Q9NZQ7) | 6.60 |
